Provenance of the data: patent US8247211B2

- Test system: Enterococcus sp.
- protocol-description: In vitro antibacterial evaluation: minimum inhibitory concentration (MIC), broth dilution method
- Type: cell-based
- experimental-setup: broth dilution, 5×10^5 CFU/mL, 18 hours at 35° C.
Kindly state MIC Enterococccus faecium (GC 4556) for each of the entries shown.
Please give a number only; it is taken to be in µg/mL.

## Input For the compound CC(c1ccccc1)C1NC(=O)CNC(=O)C(CO)NC(=O)C(C(O)C2CNC(=N)N2C2OC(CO)C(O)C(O)C2O)NC(=O)C(C(O)C2CNC(=N)N2)NC(=O)C(Cc2ccc(OC3OC(CO)C(OC4OC(COC(=O)OCc5ccccc5)C(O)C(O)C4O)C(O)C3O)cc2)NC1=O (stereo not drawn) [Example 101a] , give its reported MIC Enterococccus faecium (GC 4556).
## Output 16

## Input Identify MIC Enterococccus faecium (GC 4556) associated with the compound CC(c1ccccc1)C1NC(=O)CNC(=O)C(CO)NC(=O)C(C(O)C2CNC(=N)N2C2OC(CO)C(O)C(O)C2O)NC(=O)C(C(O)C2CNC(=N)N2)NC(=O)C(Cc2ccc(OC3OC(CO)C(OC4OC(CO)C(O)C5OC(c6ccccc6)OC45)C(O)C3O)cc2)NC1=O (single isomer, unassigned) [Example 104b]
## Output 0.5

## Input Read the entry CCCCCC1OCC2OC(OC3C(CO)OC(Oc4ccc(CC5NC(=O)C(C(C)c6ccccc6)NC(=O)CNC(=O)C(CO)NC(=O)C(C(O)C6CNC(=N)N6C6OC(CO)C(O)C(O)C6O)NC(=O)C(C(O)C6CNC(=N)N6)NC5=O)cc4)C(O)C3O)C(O)C(O)C2O1 (stereo not drawn) and write its reported MIC Enterococccus faecium (GC 4556).
## Output 2

## Input Give reported MIC Enterococccus faecium (GC 4556) value for N=C1NCC(C(O)C2NC(=O)C(Cc3ccc(OC4OC(CO)C(OC5OC6COC7(OC6C6OC8(OC56)C5CC6CC(C5)CC8C6)C5CC6CC(C5)CC7C6)C(O)C4O)cc3)NC(=O)C(CC3CCCCC3)NC(=O)CNC(=O)C(CO)NC(=O)C(C(O)C3CNC(=N)N3C3OC(CO)C(O)C(O)C3O)NC2=O)N1 (stereo not drawn) [Example 106b]
## Output 8

## Input Look up MIC Enterococccus faecium (GC 4556) of CC(c1ccccc1)C1NC(=O)CNC(=O)C(CO)NC(=O)C(C(O)C2CNC(=N)N2C2OC(CO)C(O)C(O)C2O)NC(=O)C(C(O)C2CNC(=N)N2)NC(=O)C(Cc2ccc(OC3OC(CO)C(OC4OC5COC(CC6CCCCC6)OC5C(O)C4O)C(O)C3O)cc2)NC1=O (stereo not drawn) and report it.
## Output 2

====

- Tested on: Staphylococcus sp.
- protocol-description: In vitro antibacterial evaluation: minimum inhibitory concentration (MIC), broth dilution method
- Format: cell-based
- experimental-setup: broth dilution, 5×10^5 CFU/mL, 18 hours at 35° C.
Please go through the items and note down their MIC Staphylococcus aureus-SMITH (GC 4543).
Unit mg/L implied. Number only.

## Input Note down MIC Staphylococcus aureus-SMITH (GC 4543) recorded for CC(c1ccccc1)C1NC(=O)CNC(=O)C(CO)NC(=O)C(C(O)C2CNC(=N)N2C2OC(CO)C(O)C(O)C2O)NC(=O)C(C(O)C2CNC(=N)N2)NC(=O)C(Cc2ccc(OC3OC(CO)C(OC4OC(CO)C(O)C5OC(CC67CC8CC(CC(C8)C6)C7)OC45)C(O)C3O)cc2)NC1=O (stereo not shown) [Example 128]
## Output 2

## Input Find the measured MIC Staphylococcus aureus-SMITH (GC 4543) of CCCc1ccc(C2OCC3OC(OC4C(CO)OC(Oc5ccc(CC6NC(=O)C(C(C)c7ccccc7)NC(=O)CNC(=O)C(CO)NC(=O)C(C(O)C7CNC(=N)N7C7OC(CO)C(O)C(O)C7O)NC(=O)C(C(O)C7CNC(=N)N7)NC6=O)cc5)C(O)C4O)C(O)C(O)C3O2)cc1 (stereo not shown) [Example 140] and report it.
## Output 1

## Input Please give the documented MIC Staphylococcus aureus-SMITH (GC 4543) of COc1cc(OC)cc(C2OCC3OC(OC4C(CO)OC(Oc5ccc(CC6NC(=O)C(C(C)c7ccccc7)NC(=O)CNC(=O)C(CO)NC(=O)C(C(O)C7CNC(=N)N7C7OC(CO)C(O)C(O)C7O)NC(=O)C(C(O)C7CNC(=N)N7)NC6=O)cc5)C(O)C4O)C(O)C(O)C3O2)c1 (stereo not shown) [Example 150]
## Output 2
